Test system: Plasmodium berghei
methodDescription: Screen against P. berghei liver stage (PbLuc), transformed with Luciferase, at 10uM
Type: functional, HepG2
details: tested at 10 uM
Screen size: about 69,000 compounds; about 8,600 (12%) showed an effect of 50% or more. This is one part of a sample in which strong results are shown more often than they occur.
experimentalReadout: INHIBITION (%)
Number in %, nothing else.

Task: I have this compound here, `C1CC(N2C[C@@H]3COC[C@]3(COCC3CCOCC3)C2)C1` , and I need its recorded INHIBITION.
Output: 55.7

Task: Ok, now Cc1cnn(C2CCCN(C(=O)c3cccc4c3OCO4)C2)c1 (stereo not drawn)
Output: 56.6

Task: Ok, now `CCC(=O)N1CCN(C(=O)Cn2cccn2)CC1`
Output: 27.45

Task: Ok, now COCc1nccc(C2CCCN(Cc3cccc(F)c3)C2)n1 (stereo not drawn)
Output: 20.9

Task: Ok, now COc1ccc(NC(=O)C2OC(c3cccs3)=NN2C(C)=O)cc1 (stereo not drawn)
Output: 28.3

Task: Ok, now COCC(=O)NC(C)c1cccc(Br)c1 (stereo not drawn)
Output: -60.9

Task: Ok, now `O=C(COC[C@]12COC[C@H]1CN(C1CCC1)C2)N1CCCC1`
Output: 60.2

Task: Ok, now CCc1ccc(C(=O)N2CCCC(n3cncn3)C2)o1 (stereo not drawn)
Output: 45.1

Task: Ok, now c1ccc(Cc2noc(CN3CCCC3Cn3cccn3)n2)cc1 (stereo not drawn)
Output: 1.78

Task: Ok, now O=C(c1ccc(Br)o1)N1CCCC(n2cncn2)C1 (stereo not drawn)
Output: 11.8

Task: Ok, now `CN(C)C(=O)COC[C@@]12CCC[C@@H]1CN(C1CCC1)C2`
Output: 12.7

Task: Ok, now Cc1cc(CN2CCC(C3CCN(CCc4ccccc4)C3)CC2)[nH]n1 (stereo not drawn)
Output: 11.9

Task: Ok, now CC(=O)N1N=C(c2cccs2)OC1C(=O)NCc1ccc(C)o1 (stereo not drawn)
Output: 53

Task: Ok, now O=C(c1cccc2c1OCO2)N1CCCC(n2cccn2)C1 (stereo not drawn)
Output: 28.5

Task: Ok, now `CNc1ncc(CN(C)Cc2cc(O)c3cc(F)ccc3n2)cn1`
Output: 40.9

Task: Ok, now CCOc1ccc(NC(=O)C2OC(c3cccs3)=NN2C(C)=O)cc1 (stereo not drawn)
Output: 11.5

Task: Ok, now CCn1cc(C(=O)N2C[C@H]3CC(Oc4ccccc4)C[C@H]3C2)cn1 (stereo partly drawn)
Output: -17.715

Task: Ok, now `CS(=O)(=O)NCc1ncn2c1CN(CCN1CCCC1)CCC2`
Output: 31.1

Task: Ok, now COc1ccc(C2CCCN2C(=O)NCCn2ccnc2)cc1OC (stereo not drawn)
Output: -20.965

Task: Ok, now `c1ccc(OC[C@]23COC[C@H]2CN(C2CCOCC2)C3)nc1`
Output: -4.32

Task: Ok, now Cc1ccc(-c2nc(CN3CCOC(CN(C)C)C3)co2)cc1 (stereo not drawn)
Output: 58.5

Task: Ok, now `CCc1cnc(N2C[C@@H]3C[C@H](C(=O)N(C)C)[C@H](C2)O3)nc1`
Output: -46.9

Task: Ok, now Cc1cnn(CCCn2ncc(N3CCC(CN)C3)cc2=O)c1 (stereo not drawn)
Output: 66.5

Task: Ok, now Cc1cc(CN2CCC(C3CCN(CCc4ccccc4)CC3)C2)[nH]n1 (stereo not drawn)
Output: 9.63

Task: Ok, now CC(=O)N1N=C(c2cccs2)OC1C(=O)Nc1ccccc1 (stereo not drawn)
Output: -4.32

Task: Ok, now `CC(C)(C)NC(=O)CNc1ccc(Br)cn1`
Output: 25.4

Task: Ok, now `CCn1ccc(NC(=O)CN2C(=O)CC(C)(C)c3ccccc32)n1`
Output: -34.9

Task: Ok, now Cc1cc(C(F)(F)F)n2nc(C3CCCN(S(C)(=O)=O)C3)cc2n1 (stereo not drawn)
Output: 26.475

Task: Ok, now CN1CCCC(c2nccnc2-c2cccc(Cl)c2)C1 (stereo not drawn)
Output: 11.575

Task: Ok, now COc1ccc(CCCC(=O)N2CCCC(n3cncn3)C2)cc1 (stereo not drawn)
Output: 54.8

Task: Ok, now `CC(C)CN1CCc2[nH]nc(C(=O)N3CCCC3)c2C1`
Output: 45.7

Task: Ok, now Cc1ccc(C(=O)N2CCCC(n3cncn3)C2)o1 (stereo not drawn)
Output: 60.1

Task: Ok, now `O=C(CCc1nc(C2CC2)no1)c1ccccc1`
Output: -12.2

Task: Ok, now `O=C(COC[C@@]12CCC[C@@H]1CN(C1CCCC1)C2)N1CCCC1`
Output: 34.9

Task: Ok, now CCc1c(C)nc2cc(C3CCN(CCc4ccccc4)C3)nn2c1O (stereo not drawn)
Output: 83.3

Task: Ok, now CCc1c(C)nc2cc(C3CCN(Cc4cccnc4)C3)nn2c1O (stereo not drawn)
Output: -33.4

Task: Ok, now Cc1noc(CN2CCOC(CN(C)C)C2)n1 (stereo not drawn)
Output: 31.9

Task: Ok, now Cc1cnn(CC2CN(Cc3cccnc3)CCO2)c1 (stereo not drawn)
Output: -7.81

Task: Ok, now Cc1ccc(-c2noc(CN3CCOC(CN(C)C)C3)n2)cc1F (stereo not drawn)
Output: 62.3

Task: Ok, now `Brc1cnc(NCc2ccccc2N2CCOCC2)nc1`
Output: -31.7

Task: Ok, now CCc1c(C)[nH]c2cc(C3CCN(Cc4ccncc4C)C3)nn2c1=O (stereo not drawn)
Output: 38.8

Task: Ok, now `CNc1ncc(CN(C)Cc2cc(O)c3cccc(Cl)c3n2)cn1`
Output: 60.4

Task: Ok, now Cc1cnn(C2CCCN(C(=O)c3ccc(N4CCCC4)nn3)C2)c1 (stereo not drawn)
Output: 25.1

Task: Ok, now CN(C)CC1CN(Cc2coc(-c3ccc(Cl)cc3)n2)CCO1 (stereo not drawn)
Output: 72.9

Task: Ok, now `c1cncc(OC[C@]23COC[C@H]2CN(C2CCC2)C3)c1`
Output: 20.6

Task: Ok, now CN(C)CC1CN(Cc2coc(-c3ccccc3Cl)n2)CCO1 (stereo not drawn)
Output: 25.3

Task: Ok, now CN1CC(C(=O)NCCOc2ccc3c(c2)OCO3)CC1=O (stereo not drawn)
Output: 16.9

Task: Ok, now COc1ccc(CCC(=O)N2CCCC(n3cncn3)C2)cc1 (stereo not drawn)
Output: -7.35

* * *

Tested on: Plasmodium berghei
methodDescription: Screen against P. berghei liver stage (PbLuc), transformed with Luciferase, at 10uM
Assay type: functional, HepG2
details: tested at 10 uM
In all, about 69,000 compounds went through this assay and about 8,600 (12%) showed an effect of 50% or more. Many of the other results were omitted from the sample, so strong results are more common in it than they were.
Parameter threshold = 20%. Response is met when INHIBITION meets or exceeds it, else not met.

Task: Does NC(=O)c1ccc(OCC(=O)N2CCCC(n3cccn3)C2)cc1 (stereo not drawn) have a reported INHIBITION of at least 20%?
Output: not met

Task: Ok, now COc1ccc(CCNC2CCCN(Cc3noc(C)n3)C2)cc1 (stereo not drawn)
Output: met

Task: Ok, now `Cn1c(Cn2ncc(N3CCCCC3)cc2=O)nc2ccccc21`
Output: met

Task: Ok, now O=C(COCC1CC1)N1CCCC(n2cccn2)C1 (stereo not drawn)
Output: not met

Task: Ok, now `O=C(Nc1nccs1)NC1CCN(Cc2ccccc2)CC1`
Output: not met

Task: Ok, now `Cc1ccc(OCCNc2cccc(C(=O)N3CCOCC3)c2)cc1`
Output: not met

Task: Ok, now COc1c(CNC2CCCN(c3ncccn3)C2)c(C(C)C)nn1C (stereo not drawn)
Output: met

Task: Ok, now `CCN1C[C@H]2C3(CCN(S(=O)(=O)CC)CC3)CC[C@@]2(C(=O)N(C)C)C1`
Output: not met

Task: Ok, now `CN1CCCN(c2cnn(Cc3ccncc3)c(=O)c2)CC1`
Output: met

Task: Ok, now `O=C(Cc1c(F)cccc1Cl)Nc1cc(N2CCOCC2)ncn1`
Output: met

Task: Ok, now `Cn1ncc(N2CCN(Cc3ccc(S(C)(=O)=O)cc3)CC2)cc1=O`
Output: met

Task: Ok, now `Cc1ccc2c(c1)cc(CN1CC[C@](C)(O)[C@H](C)C1)n2C`
Output: met

Task: Ok, now `CN1CCN(c2cnn(Cc3ccc(S(C)(=O)=O)cc3)c(=O)c2)CC1`
Output: met

Task: Ok, now `Cc1cnn(CCC(=O)N2CCN(C(=O)C3CC3)[C@@H]3CS(=O)(=O)C[C@@H]32)c1`
Output: not met

Task: Ok, now `N#CCSCC(=O)NCC1CCCCC1`
Output: not met

Task: Ok, now `C=Cn1ncc(CN2CCc3nc(-c4ccncc4)nc(O)c3C2)c1C`
Output: not met

Task: Ok, now `CN(C)C(=O)C1CCN(Cn2nc(-c3ccc(F)cc3)oc2=O)CC1`
Output: met

Task: Ok, now Cc1occc1CNC(=O)C1(C)CCCN1C(=O)c1ccccc1 (stereo not drawn)
Output: met

Task: Ok, now `Cc1cc(CN2CCc3nc(-c4ccncc4)nc(O)c3CC2)c(C)s1`
Output: met

Task: Ok, now O=C(COCCc1ccccc1)N1CCCC(n2cccn2)C1 (stereo not drawn)
Output: met

Task: Ok, now `Cc1cccnc1C(=O)N1CCC(Cc2cnc3[nH]ccc3c2)CC1`
Output: met

Task: Ok, now Cc1nc2cc(-c3nccn3C)nn2c(N2CCCC(CO)C2)c1C (stereo not drawn)
Output: not met
